Value source: ChEMBL document CHEMBL1135982

- experimental.target: Matrix metalloproteinase-9 (Homo sapiens, UniProt P14780)
- Sequence (P14780 whole entry): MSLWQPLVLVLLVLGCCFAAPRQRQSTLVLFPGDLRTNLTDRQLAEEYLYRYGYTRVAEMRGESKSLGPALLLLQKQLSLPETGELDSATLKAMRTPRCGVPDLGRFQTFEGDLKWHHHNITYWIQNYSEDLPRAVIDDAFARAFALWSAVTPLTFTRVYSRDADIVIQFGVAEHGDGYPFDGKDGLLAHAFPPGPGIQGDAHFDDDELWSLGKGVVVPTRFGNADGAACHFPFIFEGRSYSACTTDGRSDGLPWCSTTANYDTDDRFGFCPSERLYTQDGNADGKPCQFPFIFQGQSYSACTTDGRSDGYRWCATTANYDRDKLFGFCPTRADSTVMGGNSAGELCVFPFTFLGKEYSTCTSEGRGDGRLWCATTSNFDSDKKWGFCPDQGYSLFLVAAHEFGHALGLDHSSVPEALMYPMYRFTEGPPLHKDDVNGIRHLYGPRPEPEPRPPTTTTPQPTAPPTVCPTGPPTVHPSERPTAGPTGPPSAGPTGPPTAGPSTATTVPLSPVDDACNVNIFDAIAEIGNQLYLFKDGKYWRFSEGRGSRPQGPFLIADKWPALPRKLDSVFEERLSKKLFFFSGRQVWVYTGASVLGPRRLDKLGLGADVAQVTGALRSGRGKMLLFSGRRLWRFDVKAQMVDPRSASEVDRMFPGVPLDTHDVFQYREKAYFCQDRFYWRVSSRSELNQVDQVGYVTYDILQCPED
Doc: threshold 5 nM (exclusive). Items with Ki beneath it return t; others return f.

| compound | answer.label |
| --- | --- |
| COc1ccc([P@](=O)(OCC(F)(F)F)N2Cc3ccccc3C[C@@H]2C(=O)NO)cc1 | t |
| COc1ccc([P@](=O)(OCCC(F)(F)F)N2Cc3ccccc3C[C@@H]2C(=O)NO)cc1 | t |
| O=C(NO)C1Cc2ccccc2CN1 (configuration not stated) | f |

In the record for CCO[P@](=O)(c1ccc(OC)cc1)N1Cc2ccccc2C[C@@H]1C(=O)NO , is Ki less than 5 nM?
f

In the record for COc1ccc([P@](=O)(OCCF)N2Cc3ccccc3C[C@@H]2C(=O)NO)cc1 , is Ki less than 5 nM?
f
